Test system: Escherichia coli TOP10;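 further: peptides expressed intracellularly from a pBAD plasmid library in pooled LB shake-flask culture, induced with 0.3% L-arabinose, DNA abundance read by NGS, three biological replicates, DESeq2 with apeglm shrinkage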
Assay: shrunken log2 fold change of peptide-encoding DNA abundance (4.5 h post-induction vs induction); higher = less antimicrobial activity (less host growth inhibition)
Conditions: time post-induction: 4.5 h; library: site-saturation at positions 5, 18, 19, 20
Lab note: compare shrunken log2 fold change against 0.03. Equal or greater, write criterion met. Smaller, write criterion not met.

Please review the following examples before continuing.
1. RRIRNRPPRLPRPRPRPNNSPRP ... criterion not met
2. RRIRLRPPRLPRPRPRPMTHPRP ... criterion not met
3. RRIRQRPPRLPRPRPRPKSSPRP ... criterion met
4. RRIRLRPPRLPRPRPRPNQPPRP ... criterion not met
5. RRIRYRPPRLPRPRPRPPCKPRP ... criterion met
6. RRIRARPPRLPRPRPRPKDDPRP ... criterion met
7. RRIRMRPPRLPRPRPRPYQNPRP ... criterion met
8. RRIRSRPPRLPRPRPRPQVTPRP ... criterion not met
9. RRIRIRPPRLPRPRPRPCNAPRP ... criterion not met
10. RRIRERPPRLPRPRPRPPTNPRP ... criterion met

Check the entry `RRIRFRPPRLPRPRPRPCRPPRP` : does shrunken log2 fold change equal or exceed 0.03? criterion met

Check the entry `RRIRPRPPRLPRPRPRPNKKPRP` : does shrunken log2 fold change equal or exceed 0.03? criterion not met

Check the entry `RRIRLRPPRLPRPRPRPRGPPRP` : does shrunken log2 fold change equal or exceed 0.03? criterion met

Check the entry `RRIRIRPPRLPRPRPRPLWYPRP` : does shrunken log2 fold change equal or exceed 0.03? criterion not met
